Quick record of Ki values for Carbonic anhydrase 9 (Homo sapiens).
Write the number in µM without appending the unit.

These recorded examples may help you get a feel for the data.
> print(dat)
                                   molecule  observed
1   COc1ccc(/C=N\CCc2ccc(S(N)(=O)=O)cc2)cc1     0.231
2  NS(=O)(=O)c1ccc(CC/N=C\c2cc(Br)ccc2O)cc1     0.187

[Q] Field request: Ki | item: NS(=O)(=O)c1ccc(CC/N=C\c2ccc(OCc3ccccc3)cc2)cc1
[A] 0.23

[Q] Also check NS(=O)(=O)c1ccc(CCNCc2cc(Br)ccc2O)cc1
[A] 0.0043

[Q] Also check NS(=O)(=O)c1ccc(CCNCc2ccccc2O)cc1
[A] 0.0039

[Q] Also check Cc1ccc(/C=N\CCc2ccc(S(N)(=O)=O)cc2)cc1
[A] 0.123

[Q] Also check NS(=O)(=O)c1ccc(CC/N=C\c2ccccc2O)cc1
[A] 0.138

[Q] Also check NS(=O)(=O)c1ccc(CC/N=C\c2cc(Br)cc(Br)c2O)cc1
[A] 0.163

[Q] Also check NS(=O)(=O)c1ccc(CCNCc2cc(Br)cc(Br)c2O)cc1
[A] 0.0041

[Q] Also check NS(=O)(=O)c1ccc(CC/N=C\c2cc(Cl)cc(Cl)c2O)cc1
[A] 0.19

Measured values drawn from ChEMBL document CHEMBL3421572 for this set.
